Origin of measurements: PubChem BioAssay AID1117353

# Target Under Test: Vascular endothelial growth factor receptor 2 (Homo sapiens)
# Assay Name: VEGFR2 inhibitors, primary assay, biochemical, Homo sapiens, LANCE Ultra TR-FRET, NPC library (AID 1117353)
# Condition Notes: LANCE Ultra TR-FRET kinase assay; at 20 µM (top of the series)
For each record, write down the corresponding inhibition.
Note: unit % is implicit; provide only the numeric part.

Sure, the documented inhibition for CCCN(CCC)C(=O)C(CCC(=O)OCCCN1CCN(CCOC(=O)Cc2c(C)n(C(=O)c3ccc(Cl)cc3)c3ccc(OC)cc23)CC1)NC(=O)c1ccccc1 (centres undefined) is -17.9

Record O=c1[nH]c(=O)n([C@H]2C[C@H](O)[C@@H](CO)O2)cc1C(F)(F)F . Reported inhibition: -17.7

Summary for this molecule, COc1cc2nc(N3CCN(C(=O)c4ccco4)CC3)nc(N)c2cc1OC : inhibition is -41.4

Lab note: O=[N+]([O-])c1ccc(O)c2ncccc12 gave inhibition of 11.1

get_value(item= Cc1cc(C)c(/C=C2\C(=O)Nc3ccccc32)[nH]1 , readout=inhibition) returns 98.7

// recorded inhibition for CSc1ccc2c(c1)C(N1CCN(C)CC1)Cc1ccccc1S2 (centres undefined) : -11.8

Per the records, this molecule ( O=c1[nH]c(=O)n([C@H]2C[C@H](O)[C@@H](CO)O2)cc1F ) has inhibition equal to -21.7

inhibition reported for this molecule CCC(C)n1ncn(-c2ccc(N3CCN(c4ccc(OC[C@H]5CO[C@](Cn6cncn6)(c6ccc(Cl)cc6Cl)O5)cc4)CC3)cc2)c1=O (some centres undefined) : 22.4

Query CCc1nc(N)nc(N)c1-c1ccc(Cl)cc1 yields inhibition of 17

Record Cc1ccc2nc(N)[nH]c(=O)c2c1Sc1ccncc1 . Reported inhibition: -56.2

Sample COC(=O)[C@H]1[C@H]2C[C@@H]3c4[nH]c5cc(OC)ccc5c4CCN3C[C@H]2C[C@@H](OC(=O)/C=C/c2ccc(O)c(OC)c2)[C@@H]1OC ; inhibition observed: 16.4

For C[C@@]12C(=O)OC(=O)[C@]1(C)C1CCC2O1 the molecule record lists inhibition as -15.1

Entry under test: CCC1=C[C@@H]2CN(C1)Cc1c([nH]c3ccccc13)[C@@](C(=O)OC)(c1cc3c(cc1OC)N(C)[C@H]1[C@@](O)(C(=O)OC)[C@H](OC(C)=O)[C@]4(CC)C=CCN5CC[C@]31[C@@H]54)C2 . Its inhibition was -20.3

Lookup result for S=c1nc[nH]c2nc[nH]c12 ; measured inhibition: 15.9

Looking up Cc1ccccc1C(=O)Nc1ccc(C(=O)N2CCCC(N(C)C)c3ccccc32)cc1 (centres undefined) , I found its inhibition recorded as 41.5

molecule Oc1c(I)cc(I)c2cccnc12 , inhibition observed: 0.24

CC(=O)[C@]1(O)Cc2c(O)c3c(c(O)c2[C@@H](O[C@H]2C[C@H](N)[C@H](O)[C@H](C)O2)C1)C(=O)c1ccccc1C3=O yielded inhibition of -143

Summary for this molecule, COC(=O)Nc1nc2ccc(C(=O)c3ccccc3)cc2[nH]1 : inhibition is 74.1

Field inhibition (entry CCCCCCNC(=O)n1cc(F)c(=O)[nH]c1=O ) reads -15.1
